Every entry's value here was drawn from the supplement of paper PMC12855868.

B1: library; numbered along this chain (parent)
chain: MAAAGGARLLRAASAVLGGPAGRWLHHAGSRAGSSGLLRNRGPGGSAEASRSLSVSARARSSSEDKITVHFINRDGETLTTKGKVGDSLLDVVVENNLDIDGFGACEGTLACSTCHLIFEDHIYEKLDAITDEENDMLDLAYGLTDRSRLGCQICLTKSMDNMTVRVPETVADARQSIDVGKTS

variants of: B1; test: scaled log2 fold change in cell abundance, elesclomol vs control (0 = silent mean, 1 = nonsense mean) (scaled log2 ratio); higher = higher viability under elesclomol (loss of FDX1 cuproptosis function); settings: with HEK293T FDX1 KO; elesclomol 40 nM; glucose 10 mM; 11 days;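 note: variant abundance is its share of total variant reads in each endpoint sample, from next-generation sequencing of the integrated ORF PCR-amplified out of genomic DNA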
Short version: scaled log2 fold change at least 0.2 is t, less is f.

Ask: Does `S30K` have a reported scaled log2 fold change of at least 0.2?
Result: f

Ask: Does `R41W` have a reported scaled log2 fold change of at least 0.2?
Result: t

Ask: Does `L127D` have a reported scaled log2 fold change of at least 0.2?
Result: f

Ask: Does `K182L` have a reported scaled log2 fold change of at least 0.2?
Result: f

Ask: Does `D161C` have a reported scaled log2 fold change of at least 0.2?
Result: t

Ask: Does `E48V` have a reported scaled log2 fold change of at least 0.2?
Result: t

Ask: Does `T68G` have a reported scaled log2 fold change of at least 0.2?
Result: t

Ask: Does `L9Y` have a reported scaled log2 fold change of at least 0.2?
Result: f

Ask: Does `Q153L` have a reported scaled log2 fold change of at least 0.2?
Result: f

Ask: Does `V16T` have a reported scaled log2 fold change of at least 0.2?
Result: f

Ask: Does `P20Y` have a reported scaled log2 fold change of at least 0.2?
Result: t
